Origin of measurements: paper PMC9120017

# measurement_target: mouse TMEM16A mutant I636A (Mus musculus, UniProt Q8BHY3, I636A)
# Construct: expressed in transfected cells; host or cells: HEK293T
# Sequence (Q8BHY3 1-960 I636A): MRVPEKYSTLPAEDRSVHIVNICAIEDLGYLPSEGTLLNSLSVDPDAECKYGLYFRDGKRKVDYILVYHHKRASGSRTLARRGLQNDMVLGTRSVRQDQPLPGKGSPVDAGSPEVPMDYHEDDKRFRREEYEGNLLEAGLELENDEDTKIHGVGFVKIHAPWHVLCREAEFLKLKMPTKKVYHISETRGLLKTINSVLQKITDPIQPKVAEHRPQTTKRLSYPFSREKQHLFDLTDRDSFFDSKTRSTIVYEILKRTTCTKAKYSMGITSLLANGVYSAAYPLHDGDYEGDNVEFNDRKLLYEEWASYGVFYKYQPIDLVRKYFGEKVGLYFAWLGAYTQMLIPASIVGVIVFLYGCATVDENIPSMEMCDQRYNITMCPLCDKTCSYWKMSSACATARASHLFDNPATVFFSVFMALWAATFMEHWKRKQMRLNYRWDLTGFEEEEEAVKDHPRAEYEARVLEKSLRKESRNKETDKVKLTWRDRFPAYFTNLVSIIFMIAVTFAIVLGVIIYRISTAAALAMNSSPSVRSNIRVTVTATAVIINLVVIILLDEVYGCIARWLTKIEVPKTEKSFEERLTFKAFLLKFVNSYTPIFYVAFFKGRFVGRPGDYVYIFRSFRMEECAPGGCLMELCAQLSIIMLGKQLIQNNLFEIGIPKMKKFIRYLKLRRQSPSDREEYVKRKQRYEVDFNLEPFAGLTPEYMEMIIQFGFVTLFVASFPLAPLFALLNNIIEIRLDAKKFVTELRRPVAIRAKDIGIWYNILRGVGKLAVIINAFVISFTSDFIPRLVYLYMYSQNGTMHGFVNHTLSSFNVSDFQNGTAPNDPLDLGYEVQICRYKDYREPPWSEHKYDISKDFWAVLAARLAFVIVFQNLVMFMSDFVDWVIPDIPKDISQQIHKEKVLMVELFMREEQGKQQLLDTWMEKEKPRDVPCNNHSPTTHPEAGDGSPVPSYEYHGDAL
# assay_details: Inside-out patch recording of 1PBC block, mutant I636A
# Assay type: cell-based
# recorded_conditions: I636A; V 140 mV
measured_quantity: IC50

INSERT INTO measurements (chem_smiles, measurement_target, measured_quantity, endpoint_value) VALUES
  ('N#Cc1c(C(F)(F)F)cc(O)n2c1nc1ccccc12', 'mouse TMEM16A mutant I636A (Mus musculus, UniProt Q8BHY3, I636A)', 'IC50', '4.5 µM');
